- subjectOfTest: PPM1D (Mus musculus, UniProt Q9QZ67)
- Sequence (Q9QZ67 1-413): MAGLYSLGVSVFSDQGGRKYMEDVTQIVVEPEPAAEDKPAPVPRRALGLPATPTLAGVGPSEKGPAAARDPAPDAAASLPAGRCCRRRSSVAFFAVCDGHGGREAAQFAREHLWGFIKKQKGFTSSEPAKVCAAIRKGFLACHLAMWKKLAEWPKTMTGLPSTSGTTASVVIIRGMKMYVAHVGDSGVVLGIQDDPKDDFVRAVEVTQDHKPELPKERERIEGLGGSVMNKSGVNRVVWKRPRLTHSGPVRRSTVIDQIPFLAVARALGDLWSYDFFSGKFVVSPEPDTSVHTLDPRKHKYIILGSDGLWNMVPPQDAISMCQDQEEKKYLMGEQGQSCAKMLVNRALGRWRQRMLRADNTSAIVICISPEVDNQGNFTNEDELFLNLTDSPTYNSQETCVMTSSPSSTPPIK
pIC50: −log10 of the molar value.
quantityName: pIC50

{"columns": ["molecule", "quantityName", "observed"],
 "data": [
  ["CC[Si](CC)(CC)O[C@@H]1CCC[C@@H]2[C@@H]1C[C@H](O[Si](C)(C)C(C)(C)C)C[C@@]2(C)C(=O)O", "pIC50", 6.95]
]}
